System: SW-620 colon
Assay: NCI tumour cell line growth inhibition, 48 h
Measured quantity: TGI

[
  {
    "Smiles": "c1ccc2c(CSCc3cccc4ccccc34)cccc2c1",
    "Experimental result": "> 100 µM"
  },
  {
    "Smiles": "COc1cccc(/C=N/n2c(Cc3ccccc3)n[nH]c2=O)c1",
    "Experimental result": "> 100 µM"
  },
  {
    "Smiles": "CCOC(=O)c1cnc(N(C)C)nc1SC(=N)N",
    "Experimental result": "> 100 µM"
  },
  {
    "Smiles": "Cc1cc2c(C(=O)NC[C@H](C)c3ccccc3)c(O)c(O)cc2c(O)c1-c1c(C)cc2c(C(=O)NC[C@H](C)c3ccccc3)c(O)c(O)cc2c1O",
    "Experimental result": "5.7 µM"
  },
  {
    "Smiles": "Cc1nn(CNc2ccccc2C(F)(F)F)c(=S)n1/N=C/c1cccc2cccnc12",
    "Experimental result": "> 100 µM"
  }
]
